# SYSTEM: Human recombinant PDE4 (Genbank accession no NM—006203) (Homo sapiens)
# MEASUREMENT NOTES: PDE4 assay (SPA, cAMP cleavage)
# Format: biochemical
# MEASUREMENT PARAMETERS: Example 53; PDE4 assay as in example 52; read-out: PDE4 IC50 range
PROPERTY MEASURED: IC50

In the examples that follow, each entry is paired with its recorded IC50.
>  <SMILES>
COc1cc(C#N)cc(-c2ccc(OC)c3nc(C4CC4)nn23)c1

>  <IC50>
< 500 nM

$$$$
>  <SMILES>
COc1ccc(-c2cncc(C#N)c2)n2nc(C3(C(=O)NCCS(C)(=O)=O)CC3)nc12

>  <IC50>
< 500 nM

$$$$
>  <SMILES>
CNC(=O)C1(c2nc3c(OC)ccc(-c4ccc(C#N)cc4)n3n2)CC1

>  <IC50>
< 500 nM

$$$$
>  <SMILES>
COc1ccc(-c2cncc(C#N)c2)n2nc(C3(COC(=O)N4CCCC4)CC3)nc12

>  <IC50>
< 500 nM

$$$$
>  <SMILES>
COc1ccc(-c2ccc3c(c2)COC3=O)n2nc(C3(C(=O)NCCS(C)(=O)=O)CC3)nc12

>  <IC50>
< 500 nM

$$$$
>  <SMILES>
COc1ccc(-c2ccc3c(c2)CCC3=O)n2nc(C3(C(=O)NC(C)C)CC3)nc12

>  <IC50>
< 500 nM

$$$$
>  <SMILES>
COc1ccc(-c2cccc(C(C)=O)c2)n2nc(C3(C(=O)N4CCN(C)CC4)CC3)nc12

>  <IC50>
500 to 1000 nM

$$$$

Next item in the queue.
Suppose we examine the compound COc1ccc(-c2cccc(C#N)c2)n2nc(C3(C(=O)N4CCOCC4)CC3)nc12 ; what IC50 value has been reported?
500 to 1000 nM

* * *

# SYSTEM: Human recombinant PDE4 (Genbank accession no NM—006203) (Homo sapiens)
# MEASUREMENT NOTES: PDE4 assay (SPA, cAMP cleavage)
# Type: biochemical
# MEASUREMENT PARAMETERS: Example 52; human recombinant PDE4, 1 hour incubation, cAMP 1×10^-5M, test compound up to 10 μM; read-out: PDE4 IC50 range
Kindly supply the reported IC50 values for the records listed here.

>  <COMPOUND>
COc1ccc(-c2ccc(NC(C)=O)cc2)n2nc(C3CC3)nc12 [Compound 116]

>  <RESULT>
> 1000 nM

$$$$

Provide IC50 values for the following items, in order.
1. COc1ccc(-c2ccc(OC)c3nc(C4CC4)nn23)cc1 [Compound 103]
2. COc1ccc(-c2ccc(C(N)=O)cc2)n2nc(C3CC3)nc12 [Compound 123]
3. COc1ccc(-c2ccc(F)cc2)n2nc(C3CC3)nc12 [Compound 131]
4. COc1ccc(-c2cncnc2)n2nc(C3CC3)nc12 [Compound 111]
5. COc1ccc(-c2cccc(NC(C)=O)c2)n2nc(C3CC3)nc12 [Compound 107]
6. COc1ccc(-c2ccc(S(=O)(=O)N3CCOCC3)cc2)n2nc(C3CC3)nc12 [Compound 128]
7. CCCCOc1cccc(-c2ccc(OC)c3nc(C4CC4)nn23)c1 [Compound 124]
8. COCCOc1ccc(-c2ccc(OC)c3nc(C4CC4)nn23)cc1 [Compound 122]

1: < 500 nM; 2: < 500 nM; 3: < 500 nM; 4: 500 to 1000 nM; 5: > 1000 nM; 6: > 1000 nM; 7: < 500 nM; 8: > 1000 nM

Provide IC50 values for the following items, in order.
1. COc1ccc(-c2ccc(CNS(C)(=O)=O)cc2)n2nc(C3CC3)nc12 [Compound 130]
2. COc1ccc(-c2ccc(C(C)=O)s2)n2nc(C3CC3)nc12 [Compound 110]
3. COc1cccc(-c2ccc(OC)c3nc(C4CC4)nn23)c1 [Compound 109]
4. COc1ccc(-c2cccnc2)n2nc(C3CC3)nc12 [Compound 118]
5. COc1ccc(-c2ccncc2)n2nc(C3CC3)nc12 [Compound 126]

["> 1000 nM", "< 500 nM", "< 500 nM", "< 500 nM", "< 500 nM"]

Provide IC50 values for the following items, in order.
1. COc1ccc(-c2cccc(OC(F)(F)F)c2)n2nc(C3CC3)nc12 [Compound 108]
2. COc1ccc(-c2cccs2)n2nc(C3CC3)nc12 [Compound 106]
3. COc1ccc(N2CCCCC2)n2nc(C3CC3)nc12 [Compound 143]
4. COc1ccc(-c2cccc(F)c2)n2nc(C3CC3)nc12 [Compound 125]
5. COc1ccc(-c2ccc(S(C)(=O)=O)cc2)n2nc(C3CC3)nc12 [Compound 120]
6. COc1ccc(-c2cccc(NS(C)(=O)=O)c2)n2nc(C3CC3)nc12 [Compound 113]

1: < 500 nM; 2: < 500 nM; 3: < 500 nM; 4: < 500 nM; 5: > 1000 nM; 6: 500 to 1000 nM

* * *

# SYSTEM: Human recombinant PDE4 (Genbank accession no NM—006203) (Homo sapiens)
# MEASUREMENT NOTES: PDE4 assay (SPA, cAMP cleavage)
# Assay type: biochemical
# MEASUREMENT PARAMETERS: Example 53; PDE4 assay as in example 52; read-out: PDE4 IC50 range
Kindly supply the reported IC50 values for the records listed here.

>  <MOLECULE>
COc1ccc(-c2ccc(C#N)cc2)n2nc(C3(C(=O)NCCS(=O)(=O)N(C)C)CC3)nc12

>  <IC50>
< 500 nM

$$$$
>  <MOLECULE>
COc1ccc(-c2ccc3c(c2)CCC3=O)n2nc(C3(C(=O)NCCS(C)(=O)=O)CC3)nc12

>  <IC50>
< 500 nM

$$$$
>  <MOLECULE>
COc1ccc(-c2cccc(C#N)c2)n2nc(C3(C(=O)N4CCCC4)CC3)nc12

>  <IC50>
500 to 1000 nM

$$$$

Provide IC50 values for the following items, in order.
1. COc1ccc(-c2cccc(C#N)c2)n2nc(C3(C(=O)NCc4ccccc4)CC3)nc12
2. COc1ccc(-c2ccc3c(c2)COC3=O)n2nc(C3(C(=O)NCc4ccccc4)CC3)nc12
3. COc1ccc(C2=NNC(=O)CC2C)n2nc(C3CC3)nc12 (stereo not drawn)

< 500 nM
< 500 nM
500 to 1000 nM

* * *

Kindly supply the reported IC50 values for the records listed here.
# SYSTEM: Human recombinant PDE4 (Genbank accession no NM—006203) (Homo sapiens, UniProt Q08499)
# Sequence (Q08499 1-673 isoform Q08499-2): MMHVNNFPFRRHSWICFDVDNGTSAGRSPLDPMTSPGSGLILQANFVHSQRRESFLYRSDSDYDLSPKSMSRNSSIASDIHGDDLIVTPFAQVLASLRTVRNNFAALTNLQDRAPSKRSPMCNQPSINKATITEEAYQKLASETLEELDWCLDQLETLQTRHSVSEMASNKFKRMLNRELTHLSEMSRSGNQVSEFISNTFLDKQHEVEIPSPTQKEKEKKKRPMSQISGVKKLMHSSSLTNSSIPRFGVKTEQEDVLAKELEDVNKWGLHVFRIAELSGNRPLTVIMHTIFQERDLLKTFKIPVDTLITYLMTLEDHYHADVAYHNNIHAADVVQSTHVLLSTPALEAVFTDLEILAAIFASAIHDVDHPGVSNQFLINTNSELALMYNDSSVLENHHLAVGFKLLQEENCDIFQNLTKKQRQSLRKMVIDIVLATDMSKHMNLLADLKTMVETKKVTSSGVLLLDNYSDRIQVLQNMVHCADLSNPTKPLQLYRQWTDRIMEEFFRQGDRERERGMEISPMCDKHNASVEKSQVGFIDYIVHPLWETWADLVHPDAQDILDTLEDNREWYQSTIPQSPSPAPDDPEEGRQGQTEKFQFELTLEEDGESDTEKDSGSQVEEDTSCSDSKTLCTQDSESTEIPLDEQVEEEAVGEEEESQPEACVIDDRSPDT
# MEASUREMENT NOTES: PDE4 assay (SPA, cAMP cleavage)
# Format: biochemical
# MEASUREMENT PARAMETERS: Example 53; PDE4 assay as in example 52; read-out: PDE4 IC50 range

>  <SMILES>
COc1ccc(-c2ccc(C#N)cc2)n2nc(C3(C(=O)N4CCOCC4)CC3)nc12

>  <IC50>
> 1000 nM

$$$$

Provide IC50 values for the following items, in order.
1. COc1ccc(-c2ccc(C#N)cc2)n2nc(C3(C(=O)NCC(C)C)CC3)nc12
2. COc1cc(-c2ccc(OC)c3nc(C4(C(=O)NCc5ccccc5)CC4)nn23)ccc1C#N
3. COc1ccc(-c2cccc(C(C)=O)c2)n2nc(C3(C(=O)NCCS(C)(=O)=O)CC3)nc12

< 500 nM
< 500 nM
< 500 nM

Provide IC50 values for the following items, in order.
1. COc1cc(-c2ccc(OC)c3nc(C4(COC(=O)N(C)C)CC4)nn23)ccc1C#N
2. COc1ccc(-c2cccc(C(C)=O)c2)n2nc(C3(C(=O)NCc4cccnc4)CC3)nc12
3. COc1ccc(-c2ccc(C#N)cc2)n2nc(C3(C(=O)N4CCN(C)CC4)CC3)nc12
4. COc1ccc(-c2cccc(C(C)=O)c2)n2nc(C3(C(=O)O)CC3)nc12

< 500 nM
< 500 nM
> 1000 nM
> 1000 nM

* * *

Kindly supply the reported pIC50 values for the records listed here.
# SYSTEM: Human recombinant PDE4 (Genbank accession no NM—006203) (Homo sapiens)
# MEASUREMENT NOTES: PDE4 assay (SPA, cAMP cleavage)
# Assay type: biochemical
# MEASUREMENT PARAMETERS: Example 52; human recombinant PDE4, 1 hour incubation, cAMP 1×10^-5M, test compound up to 10 μM; read-out: PDE4 IC50 range
pIC50: −log10 of the molar value.

>  <COMPOUND>
COc1ccc(-c2ccc(C#N)cc2)n2nc(C3CC3)nc12 [Compound 132]

>  <SYSTEM>
Human recombinant PDE4 (Genbank accession no NM—006203) (Homo sapiens)

>  <pIC50>
> 6.30

$$$$
>  <COMPOUND>
COc1ccc(-c2cccc(S(C)(=O)=O)c2)n2nc(C3CC3)nc12 [Compound 112]

>  <SYSTEM>
Human recombinant PDE4 (Genbank accession no NM—006203) (Homo sapiens)

>  <pIC50>
6.00 to 6.30

$$$$
>  <COMPOUND>
COc1ccc(-c2ccc(S(=O)(=O)NCCO)cc2)n2nc(C3CC3)nc12 [Compound 134]

>  <SYSTEM>
Human recombinant PDE4 (Genbank accession no NM—006203) (Homo sapiens)

>  <pIC50>
< 6.00

$$$$
>  <COMPOUND>
CNC(=O)c1cccc(-c2ccc(OC)c3nc(C4CC4)nn23)c1 [Compound 114]

>  <SYSTEM>
Human recombinant PDE4 (Genbank accession no NM—006203) (Homo sapiens)

>  <pIC50>
< 6.00

$$$$
>  <COMPOUND>
COC(=O)CCc1ccc(-c2ccc(OC)c3nc(C4CC4)nn23)cc1 [Compound 133]

>  <SYSTEM>
Human recombinant PDE4 (Genbank accession no NM—006203) (Homo sapiens)

>  <pIC50>
6.00 to 6.30

$$$$
>  <COMPOUND>
COc1ccc(-c2ccc(CNC(C)=O)cc2)n2nc(C3CC3)nc12 [Compound 129]

>  <SYSTEM>
Human recombinant PDE4 (Genbank accession no NM—006203) (Homo sapiens)

>  <pIC50>
< 6.00

$$$$
>  <COMPOUND>
COc1ccc(-c2ccc(Cl)cc2Cl)n2nc(C3CC3)nc12 [Compound 127]

>  <SYSTEM>
Human recombinant PDE4 (Genbank accession no NM—006203) (Homo sapiens)

>  <pIC50>
6.00 to 6.30

$$$$
>  <COMPOUND>
COc1ccc(-c2ccc(C(F)(F)F)cc2)n2nc(C3CC3)nc12 [Compound 104]

>  <SYSTEM>
Human recombinant PDE4 (Genbank accession no NM—006203) (Homo sapiens)

>  <pIC50>
6.00 to 6.30

$$$$
>  <COMPOUND>
COc1ccc(-c2ccccc2F)n2nc(C3CC3)nc12 [Compound 121]

>  <SYSTEM>
Human recombinant PDE4 (Genbank accession no NM—006203) (Homo sapiens)

>  <pIC50>
6.00 to 6.30

$$$$

Next item in the queue.
State its pIC50 on Human recombinant PDE4 (Genbank accession no NM—006203) (Homo sapiens): COc1ccc(-c2ccc(OC)c3nc(C4CC4)nn23)cc1OC [Compound 105]
> 6.30
